- system_under_test: MCL-1 (Homo sapiens (Human), UniProt Q07820, K194A/K197A/R201A)
- Sequence (Q07820 whole entry K194A/K197A/R201A, looked up): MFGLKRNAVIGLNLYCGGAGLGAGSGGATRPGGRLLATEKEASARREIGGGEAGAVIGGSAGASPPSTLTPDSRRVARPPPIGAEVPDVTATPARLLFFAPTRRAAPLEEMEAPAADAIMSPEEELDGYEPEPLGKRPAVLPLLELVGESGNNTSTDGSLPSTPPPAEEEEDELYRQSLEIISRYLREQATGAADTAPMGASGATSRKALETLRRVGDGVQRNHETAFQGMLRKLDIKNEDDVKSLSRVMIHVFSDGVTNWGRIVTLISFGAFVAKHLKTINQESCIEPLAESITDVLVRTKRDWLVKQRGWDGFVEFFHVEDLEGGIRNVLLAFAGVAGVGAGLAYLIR
- measurement_protocol: Protein-protein interaction assay MCL-1/Noxa BH3 peptide (MCL-1 assay), TR-FRET
- Format: binding
- measurement_context: MCL-1/Noxa BH3 peptide TR-FRET; median
value_type: IC50 (nM)

compound	result_number
CCc1nn(C)c2c1-c1c(F)ccc3c(CCCOc4cccc5ccccc45)c(C(=O)O)n(c13)C/C=C\COC2 (racemic) [Example 11]	2.2
Cc1c2c(nn1C)COC/C=C\Cn1c(C(=O)O)c(CCCOc3cccc4ccccc34)c3ccc(F)c-2c31 (racemic) [Example 1]	1.8
CCc1c2c(nn1C)COCCCCn1c(C(=O)O)c(CCCOc3cccc4cc(F)ccc34)c3ccc(F)c-2c31 (racemic) [Example 21]	0.86
Cc1c2c(nn1C)COCCCCn1c(C(=O)O)c(CCCOc3cccc4cc(F)ccc34)c3ccc(F)c-2c31 (racemic) [Example 12]	0.85
Cc1nn(C)c2c1-c1c(F)ccc3c(CCCOc4cccc5c4CCCC5)c(C(=O)O)n(c13)CCCCOC2 (racemic) [Example 34]	1.3

[A] Cc1nn(C)c2c1-c1c(F)ccc3c(CCCOc4cccc5ccccc45)c(C(=O)O)n(c13)CCCCOC2 (racemic) [Example 10]
[B] CCc1c2c(nn1C)CN(C)CCCCn1c(C(=O)O)c(CCCOc3cccc4c3CCCC4)c3ccc(F)c-2c31 (racemic) [Example 52]
[C] CCc1c2c(nn1C)COCCCCn1c(C(=O)O)c(CCCOc3cccc4ccccc34)c3ccc(F)c-2c31 (single isomer, unassigned; enantiomer 2) [Example 8]
[D] CCc1c2c(nn1C)COCCCCn1c(C(=O)O)c(CCCOc3cccc4cc(F)ccc34)c3ccc(F)c-2c31 (single isomer, unassigned; enantiomer 2) [Example 23]
*Q* Given 4 compounds, produce a descending ranking by IC50. A ranking is expressed here by listing the labels in the requested order.
*A* C, D, B, A
(C: 26 nM, D: 9.6 nM, B: 1.7 nM, A: 1.1 nM)

[a] CCc1c2c(nn1C)COCCCCn1c(C(=O)O)c(CCCOc3ccc(F)c4ccccc34)c3ccc(F)c-2c31 (single isomer, unassigned; enantiomer 1) [Example 27]
[b] CCc1c2c(nn1C)CN(C)CCCCn1c(C(=O)O)c(CCCOc3cccc4c3CCC4)c3ccc(F)c-2c31 (racemic) [Example 51]
*Q* Hey, which is lower on measured IC50, a or b ? Lab log: write the label of the selected item as the result.
*A* b

* * *

- Tested on: MV-4-11
- measurement_protocol: Antiproliferation assay MV-4-11 (Assay 7)
- Assay type: cell-based
- measurement_context: Homo sapiens, MV4-11, 72 h, MV-4-11 cells, CellTiter-Glo, single determinations, read-out: IC50 Antiproli MV-4-11
pIC50: −log10 of the molar value.
value_type: pIC50

compound	pIC50
Cc1c2c(nn1C)COCCCCn1c(C(=O)O)c(CCCOc3cccc4c3CCC4)c3ccc(F)c-2c31 (racemic)	5.37
Cc1nn(C)c2c1-c1c(F)ccc3c(CCCOc4cccc5ccccc45)c(C(=O)O)n(c13)CCCCOC2 (racemic)	5.19
Cc1nn(C)c2c1-c1c(F)ccc3c(CCCOc4cccc5c4CCCC5)c(C(=O)O)n(c13)CCCCOC2 (racemic)	4.94

[A] Cc1nn(C)c2c1-c1c(F)ccc3c(CCCOc4cccc5ccccc45)c(C(=O)O)n(c13)C/C=C\COC2 (racemic)
[B] Cc1c2c(nn1C)COCCCCn1c(C(=O)O)c(CCCOc3cccc4c3CCCC4)c3ccc(F)c-2c31 (racemic)
*Q* Consider entries A and B . Which has the numerically lower pIC50? Answer by stating the label of the chosen item.
*A* A
